Quick reference for apparent KD of MS2 coat protein among some sequences
Tested on: MS2 coat protein
measurement.description: apparent KD of MS2 coat protein; designed switch direction (-1 OFF switch, 1 ON switch): -1; higher = weaker reporter binding
details: Eterna round: R95; input ligand: microRNA oligo, concentration not stated
Please give a number only; it is taken to be in nM.

Before answering, review these 4 worked examples.
INSERT INTO assay_data (polymer_sequence, observed) VALUES
  ('AAGAAACAUGAGGAUCACCCAUGUGAGGAUAUGAAAAAGAAAAGAAAAGAAAGAAGGAUCAGAAGGCACAAAGG [salish99-ex1_r3_025] (puzzle: Exclusion 1)', 30.3),
  ('CCUGUACAUGAGGAUCACCCAUGUUAGGAUAUCUCGCCGUCGGCUUGCCGACGGUAUUAGAGAAGGGACAAGGG [JL Tixe mod 4] (puzzle: Exclusion 1)', 31),
  ('UAGAAGGUAGGAUAUACGAAUAAAUAGGGUAGUAAUAAUACACAUGAGGAUCACCCAUGUAGAAGGACCAAGAU [Mat - Exclusion 2 - Mod of my Tesla design - D31] (puzzle: Exclusion 2)', 20.1),
  ('AGUACUAACACGAAAGUGUUAGUACAAUAAGCUUGUGAAACAUGAGGAUCACCCAUGUCCUCAUAAGCUCGUCUUAU [salish99_TOv2_r3_001again] (puzzle: Sensor v3, turn-off variant 2)', 648);

Note: attention shifts to another entry.
Q. Note apparent KD of MS2 coat protein for the sequence shown: UUGAACAUAGGAUAUAGUUGUUUGUACAUGAGGAUCACCCAUGUUAGGGAUGUUUUGUUUCUAGAAGGAUGUUGAU [JR_E5_Sub001] (puzzle: Exclusion 5)
A. 128

====

Test system: K4 kissing-loop RNA reporter
measurement.description: apparent KD of K4 kissing-loop reporter; higher = weaker reporter binding
details: Eterna round: R107; input ligand: FMN 200 uM
Below, each of the sequences is paired with its reported apparent KD of K4 kissing-loop reporter value.
Enter your answer as a number in nM; do not include the unit.

INSERT INTO assay_data (polymer_sequence, endpoint_name, observed) VALUES
  ('GGUAGUGCUAGCGAUACCAGUCAUAUCGCUCUGGAGUGAUGUUCCGGAACGUGCGGAGAAGACCCUUGGCAGCGCUUGACGGUGU [Exclusion Theophylline B GF5]', 'apparent KD of K4 kissing-loop reporter', 218);

Q. Name the value of apparent KD of K4 kissing-loop reporter reported for GGUUAGUGAUGUUGAUCAAAUCGCGGUGAUACCAGCAACACAUCGUGCCCUUGGCAGCACGGCAAAAUGAAUGCGGUCGAAUGCG [theeternabot_exclusion_KL_Theo_A_19] when tested on K4 kissing-loop RNA reporter.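 Also: bound reporter read as fluorescence of individual clusters on recovered sequencing chips by microscopy, with normalized cluster intensities fitted with a binding model.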
A. 487

Q. Send back K4 kissing-loop RNA reporter apparent KD of K4 kissing-loop reporter of UAUAUAGUGACGGCCGCCACUAUAUUAAUGUUUUUGUUAGAGUGAUGUUUUGAUUAAUAUUUUUAUAGGACCGGGUUAUAUGUUA [xzzxmullin] only.
A. 657

====

Test system: MS2 coat protein
measurement.description: apparent KD of MS2 coat protein, switch ON state; designed switch direction (-1 OFF switch, 1 ON switch): 1; higher = weaker reporter binding
details: FMN input: 0 or 200 uM; Eterna round: R93 (includes R88 designs)
endpoint.name: apparent KD of MS2 coat protein

Illustrative cases are given below, each with its answer.
INSERT INTO results (polymer_sequence, target_or_system, observed) VALUES
  ('GGAAGACAUGAGGAUCACCCAUGUGGGAUUAUGGGAGGAUAUACAAAGACGAGAGUCAGAGUAGAAGGCCUAGGAA [salish99-ss1-120(!)]', 'MS2 coat protein', '0.0286 µM'),
  ('AAAAACAUGGUGCAGGAUAUAUUAAUAGUCACAUGAGGAUCACCCAUGUUCAUAUAUAUGAACGAGUAGAAGGGCGAUGAAAAAA [Mat - Same state - Malcolm Mod - D110]', 'MS2 coat protein', '0.181 µM'),
  ('AGGAGACAUGAGGAUCACCCAUGUGAGAAGAGGCGAGGAUAUCGAAAGAAAGAAGAGAAACGAGAAGGCGCGAGUA [salish99-SS1-018]', 'MS2 coat protein', '0.0249 µM'),
  ('AAAACACAUGAGGAUCACCCAUGUAGAAAUACUGGAGGAUAUGCUAAAACGAAAGACAAUGUAGAAGGCCGAAAAG [saturn 11]', 'MS2 coat protein', '0.0716 µM');

Turning to the following sequence.
Q. Return reported apparent KD of MS2 coat protein. Input sequence: UAAAAACAUGAGGAUCACCCAUGUAGAAAUAUGGGAGGAUAUACAAAGACGAAAGUCAAAGUAGAAGGCCUGAAAU [Mat - Same State 1 - Eli mod - 85]
A. 0.0215 µM
